Tested on: CF41.Mg cell line
Test Name: ATPlite proliferation assay
Format: cell-based, canine
Experimental Parameters: Canis lupus familiaris, 72 h
Where a name gives a salt, the structure may show the parent alone.
Endpoint: pIC50
Numbers only, as −log10 of the molar value.

So for COc1cccc2c1C(=O)c1c(O)c3c(c(O)c1C2=O)C[C@@](O)(C(=O)CO)C[C@@H]3O[C@H]1C[C@H](N)[C@H](O)[C@H](C)O1 [doxorubicin hydrochloride] , the logged pIC50 turned out to be 6.43

* * *

Tested on: CMT-12 cancer cell line
Test Name: MTT proliferation assay
Assay type: cell-based, canine
Experimental Parameters: Canis lupus familiaris, read-out: chemotherapy IC50
Counter-ions that a name gives are not always drawn.
Endpoint: pIC50
Numbers only, as −log10 of the molar value.

So for COc1cccc2c1C(=O)c1c(O)c3c(c(O)c1C2=O)C[C@@](O)(C(=O)CO)C[C@@H]3O[C@H]1C[C@H](N)[C@H](O)[C@H](C)O1 [doxorubicin hydrochloride] , the logged pIC50 turned out to be 6.52
